Biological target: human recombinant 5-HT2A receptor (Homo sapiens (Human))
Assay: biochemical
Type: binding
Details: [3H]-Ketanserin 3 nmol/L, Jump-In HEK cell membrane; class symbols; read-out: h-5-HT2A Ki
VALUE_TYPE: Ki

Some solved cases for reference:
[[record]]
compound = "CN1CCC(N(Cc2ccc(F)cn2)C(=O)NCc2ccc(OCC(C)(F)F)cc2)CC1 [Compound I-092]"
target_or_test_system = "human recombinant 5-HT2A receptor (Homo sapiens (Human))"
test_result = "< 10 nM"

[[record]]
compound = "CCCOc1ccc(CNC(=O)N(Cc2cc(C)n(C)n2)[C@@H]2CCN(C)CC23CC3)cc1 [Compound I-127]"
target_or_test_system = "human recombinant 5-HT2A receptor (Homo sapiens (Human))"
test_result = "> 100 nM"

[[record]]
compound = "CC(C)COc1ccc(CNC(=O)N(Cc2ccc(F)c3cccnc23)C2CCN(C)CC2)cc1 [Compound I-070]"
target_or_test_system = "human recombinant 5-HT2A receptor (Homo sapiens (Human))"
test_result = "< 10 nM"


Continue with the compound presented below.
Noted for CN1CCC(N(Cc2ccc(F)cn2)C(=O)NCc2ccc(N(C)C)cc2)CC1 [Compound I-121] : its Ki reads 10 to 100 nM
